I'd be grateful if you could share measured growth for these entries.
Test system: HCT-116 colon
PROTOCOL: NCI-60 one-dose screen, 48 h (100 = growth as untreated, 0 = no growth, -100 = all killed)
MEASUREMENT CONTEXT: 10 µM unless noted
About 83,000 compounds went through this panel and 20% of them were active in at least one assay; those are over-represented in the sample as a whole.
I only need the number, in %, no unit after it.

Sample `O=P(Oc1ccc(Cl)cc1)(N1CC1)N1CC1` — what was its growth?
84

Data request, read-out growth, for `CC(C)(N)Cc1ccccc1`
101

Need growth, item `COc1cc(/C=C\c2cc(OC)c(OC)c(OC)c2)cc(N/C=C\C(=O)c2cc(OC)c(OC)c(OC)c2)c1OC`
17.8

Which growth value is on record for `CC(=O)O[C@H]1C(=O)[C@@]2(C)[C@H]([C@H](OC(=O)c3ccccc3)[C@]3(O)C[C@H](OC(=O)[C@H](OC(=O)OC[C@@H]4COC(C)(C)O4)[C@@H](NC(=O)c4ccccc4)c4ccccc4)C(C)=C1C3(C)C)[C@]1(OC(C)=O)CO[C@@H]1C[C@@H]2O` ?
5.09

meta.source: PubChem BioAssay (NCI)
